Target: human glucocorticoid receptor (Homo sapiens)
Construct: purified human recombinant full-length glucocorticoid receptor (2 nM); purchased Invitrogen Part #2893
Test: Glucocorticoid Receptor Binding Assay (I), fluorescence polarization competitor kit (Fluormone GS Red)
Settings: GR (Ki, nM) (GR Binding Assay (I)), purified human recombinant full-length GR 2 nM, 1 nM Fluormone GS Red, FP
outcome-measure: Ki (nM)
Answer format: numeric, nM implied, no suffix.

[ask] Report Ki for CC(C)(C(=O)Nc1nccs1)C(c1ccccc1)c1ccc2c(cnn2-c2cccnc2)c1 (stereo not shown) [Example 85] tested on human glucocorticoid receptor (Homo sapiens).
[reply] 7.8

----------
Target: human glucocorticoid receptor (Homo sapiens, UniProt P04150)
Construct: purified human recombinant full-length glucocorticoid receptor (2 nM); purchased Invitrogen Part #2893
Sequence (P04150 whole entry): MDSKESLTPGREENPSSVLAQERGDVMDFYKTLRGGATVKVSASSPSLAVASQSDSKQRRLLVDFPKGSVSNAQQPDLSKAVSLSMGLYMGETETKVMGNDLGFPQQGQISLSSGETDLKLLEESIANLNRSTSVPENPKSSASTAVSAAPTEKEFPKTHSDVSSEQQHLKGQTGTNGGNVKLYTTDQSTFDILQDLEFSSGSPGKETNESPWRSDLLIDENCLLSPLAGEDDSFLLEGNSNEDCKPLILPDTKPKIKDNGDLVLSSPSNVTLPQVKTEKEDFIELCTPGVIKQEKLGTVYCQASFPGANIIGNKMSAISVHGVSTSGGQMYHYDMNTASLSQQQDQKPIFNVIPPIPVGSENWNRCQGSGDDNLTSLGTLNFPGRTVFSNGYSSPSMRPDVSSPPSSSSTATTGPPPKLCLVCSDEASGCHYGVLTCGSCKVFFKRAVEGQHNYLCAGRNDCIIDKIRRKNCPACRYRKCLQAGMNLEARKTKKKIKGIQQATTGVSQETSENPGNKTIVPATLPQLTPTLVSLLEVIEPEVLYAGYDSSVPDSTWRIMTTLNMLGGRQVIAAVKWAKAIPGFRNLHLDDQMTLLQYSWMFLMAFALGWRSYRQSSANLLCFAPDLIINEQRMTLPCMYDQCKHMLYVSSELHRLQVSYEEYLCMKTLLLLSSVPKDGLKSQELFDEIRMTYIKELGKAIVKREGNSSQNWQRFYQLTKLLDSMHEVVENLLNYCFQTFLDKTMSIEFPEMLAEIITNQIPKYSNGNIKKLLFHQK
Experiment: Glucocorticoid Receptor Binding Assay (I), fluorescence polarization competitor kit (Fluormone GS Red)
Conditions: purified human recombinant full-length GR 2 nM, 1 nM Fluormone GS Red, FP; read-out: GR (Ki, nM) (GR Binding Assay (I))
outcome-measure: log10 Ki (log10 of the value in nM)
Record value = log10 of Ki given in nM.

See these solved cases before continuing.
[[record]]
compound = "Cc1nc(NC(=O)C(C)(C)C(c2ccccc2)c2ccc3c(cnn3-c3ccc(F)cc3)c2)sc1C (stereo not shown) [Example 24]"
result_value = 1.45

[[record]]
compound = "CC(C)(C(=O)Nc1nccs1)C(c1ccccc1)c1ccc2c(cnn2-c2ccccn2)c1 (stereo not shown) [Example 79]"
result_value = 1.00

[[record]]
compound = "CC(C)(C(=O)Nc1cc(O)[nH]n1)C(c1ccccc1)c1ccc2c(cnn2-c2ccc(F)cc2)c1 (stereo not shown) [Example 15]"
result_value = 2.50

[[record]]
compound = "CC(C)(C(=O)Nc1nncs1)C(c1ccccc1)c1ccc2c(cnn2-c2ccc(F)cc2C(F)(F)F)c1 (stereo not shown) [Example 92]"
result_value = 2.04

[[record]]
compound = "CC(C)(Cc1ccc2c(cnn2-c2ccc(F)cc2)c1)C(=O)Nc1nccs1 [Example 31]"
result_value = 1.99


[ask] Item CC(C)(C(=O)Nc1nccs1)C(c1ccccc1)c1ccc2c(-c3ccccc3)n[nH]c2c1 (stereo not shown) [Example 112] has what recorded log10 Ki?
[reply] 1.11

[ask] Item CC(C)(C(=O)NS(C)(=O)=O)C(c1ccccc1)c1ccc2c(cnn2-c2ccc(F)cc2)c1 (stereo not shown) [Example 5] has what recorded log10 Ki?
[reply] 0.85

[ask] Item CC(C)(C(=O)Nc1nncs1)C(c1ccccc1)c1ccc2c(cnn2CCc2ccccc2)c1 (stereo not shown) [Example 74] has what recorded log10 Ki?
[reply] 2.18

[ask] Item Cn1ccc(NC(=O)C(C)(C)C(c2ccccc2)c2ccc3c(cnn3-c3ccc(F)cc3)c2)n1 (stereo not shown) [Example 4] has what recorded log10 Ki?
[reply] 0.85

[ask] Item CC(C)n1cc2cc(C(c3ccccc3)C(C)(C)C(=O)Nc3nccs3)ccc2n1 (stereo not shown) [Example 62] has what recorded log10 Ki?
[reply] 0.95

[ask] Item CC(C)(C(=O)Nc1nccs1)C(c1ccccc1)c1ccc2[nH]c(-c3ccncc3)cc2c1 (stereo not shown) [Example 115] has what recorded log10 Ki?
[reply] 1.41

[ask] Item CC(C)(C(=O)Nc1nncs1)C(c1ccccc1)c1ccc2c(cnn2-c2ccccn2)c1 (stereo not shown) [Example 80] has what recorded log10 Ki?
[reply] 0.91

[ask] Item O=C(CC(c1ccccc1)c1ccc2c(cnn2-c2ccc(F)cc2)c1)Nc1nncs1 (single isomer, unassigned) [136-enant B] has what recorded log10 Ki?
[reply] 0.78

[ask] Item CC(C)(C(=O)Nc1nccs1)C(c1ccc2c(cnn2-c2ccc(F)cc2)c1)C1CCCC1 (stereo not shown) [Example 35] has what recorded log10 Ki?
[reply] 1.32

[ask] Item CC(C)(C(=O)Nc1nnc(C2CC2)s1)C(c1ccccc1)c1ccc2c(cnn2-c2ccc(F)cc2)c1 (stereo not shown) [Example 21] has what recorded log10 Ki?
[reply] 1.08

[ask] Item O=C(Nc1nccs1)C1CC1(c1ccccc1)c1ccc2c(cnn2-c2ccc(F)cc2)c1 (stereo not shown) [Example 98] has what recorded log10 Ki?
[reply] 1.18
